Assay: Laser-capture microdissection and LC/MS-MS drug quantification in liver lesions and surrounding tissue, mouse IAC model
Assay type: in vivo
Settings: female, CD1, mouse, in vivo, 5 mg/kg, 5 mg/kg once daily; 24 hours post second dose; read-out: drug level in liver lesions
Numbered stars: 1 amine (or outer) side, 2 acyl side, 3 side chain; on linkers, the order of the positions; unused ones are H or OH. Bridge positions count the residues as written; N and C are the ends. Square brackets hold non-standard residues; d marks the D form. Peptide text beside a SMILES is read from it. * marks the point of attachment. hTyr(3S-OH,4S-OH,3'-OSO3H) = N[C@H](C(=O)O)[C@H](O)[C@@H](O)c1ccc(O)c(OS(=O)(=O)O)c1; Orn(4R-OH,5R-OH) = O=C([C@H](C[C@@H](O)[C@@H](O)N[*:3])N[*:1])[*:2]; Pro(3S-OH,4S-Me) = C[C@H]1CN[C@H](C(=O)O)[C@H]1O; X1 = CCCCCOc1ccc(-c2cc(-c3ccc(C(=O)*)cc3)no2)cc1; Gln(3R-OH) = NC(=O)C[C@@H](O)[C@H](N)C(=O)O; Hyp = O=C(O)[C@@H]1C[C@@H](O)CN1
readout_name: concentration at 24 h (ng/mL)
Give the quantity in ng/mL, number only.

// recorded concentration at 24 h for CCCCCOc1ccc(-c2cc(-c3ccc(C(=O)N[C@H]4C[C@@H](O)[C@@H](O)NC(=O)[C@@H]5[C@@H](O)[C@@H](C)CN5C(=O)[C@H]([C@H](O)CC(N)=O)NC(=O)[C@H]([C@H](O)[C@@H](O)c5ccc(O)c(OS(=O)(=O)O)c5)NC(=O)[C@@H]5C[C@@H](O)CN5C(=O)[C@H]([C@@H](C)O)NC4=O)cc3)no2)cc1 [micafungin] (X1-[Orn(4R-OH,5R-OH)]T[Hyp][hTyr(3S-OH,4S-OH,3'-OSO3H)][Gln(3R-OH)][Pro(3S-OH,4S-Me)]; lactam 1-C) : 3500

Where do the numbers come from? From patent US20200164023A1.
